Where do these numbers come from? They come from ChEMBL document CHEMBL1158536.

Overview of recorded Daq for various compounds
Conditions: caco-2
Response body: numeric value in ×10⁻⁶ cm2/s, unit text excluded.

compound="NC(CO)C(=O)NNCc1ccc(O)c(O)c1O (stereo not given) [BENSERAZIDE]" readout=Daq result=8
compound="C[S+]([O-])CCCCN=C=S (stereo not given)" readout=Daq result=9.5
compound="CC(C)(C)NCC(O)c1cc(O)cc(O)c1 (stereo not given)" readout=Daq result=8.5
compound=N[C@@H](Cc1ccccc1)C(=O)O readout=Daq result=9.8
compound=CN1C(C(=O)Nc2ccccn2)=C(O)c2ccccc2S1(=O)=O readout=Daq result=7.1

For the compound OC[C@H]1OC(O)[C@H](O)[C@@H](O)[C@@H]1O (stereo not given in full) , give its reported Daq. 9.4

For the compound N=C(N)NC(=O)c1nc(Cl)c(N)nc1N [AMILORIDE] , give its reported Daq. 8.4
